Reference for the values: PubChem BioAssay AID781

inhibition: recorded values
- test-target: 14-3-3 protein zeta/delta (Bos taurus) (UniProt P63103)
- Sequence (P63103 whole entry, looked up): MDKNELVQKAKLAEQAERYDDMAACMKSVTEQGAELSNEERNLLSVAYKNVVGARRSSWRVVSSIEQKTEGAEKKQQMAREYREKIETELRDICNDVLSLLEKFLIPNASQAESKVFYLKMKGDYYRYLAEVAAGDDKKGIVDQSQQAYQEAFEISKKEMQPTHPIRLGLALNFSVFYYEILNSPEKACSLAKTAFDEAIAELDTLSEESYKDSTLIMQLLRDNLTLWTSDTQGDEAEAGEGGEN
- experiment-description: disruptors of 14-3-3 zeta phospho-Bad complex – biochemical, TR-FRET, bovine 14-3-3 zeta, primary screen (AID 781);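 further: 0% = full 14-3-3 plus peptide FRET controls and 100% = background without 14-3-3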
- experimental-setup: TR-FRET 14-3-3zeta/Dy647-pBad peptide displacement, 1 h; at 21.7 µM; hits give high values
Out of some 220,000 compounds screened, about 1,600 (0.73%) were called active. Shown is part of a subset that was picked to be rich in actives.
measured-attribute: inhibition (%)

>>> df
                                    compound  unit_of_measure  result_number
 0   COc1cccc(OC)c1OCCN1CCN(C(=O)c2ccco2)CC1                %           24.8
 1    Cc1ccc2[nH]c3c(=O)n(Cc4ccccn4)cnc3c2c1                %          -4.28
 2                Oc1ccc2ccccc2c1C=Nc1ccccc1                %           4.91
 3  Cc1ccc(NC(=O)c2nc[nH]c2C(=O)N[C@@H](CCCCNC(=O)OC(C)(C)C)C(=O)OC(C)(C)C)cc1                %          -8.93
 4   Cc1[nH]nc(SCC(=O)NCC(C)C)c1[N+](=O)[O-]                %             94
 5       CC(C)OCCCNc1ncnc2c1[nH]c1ccc(F)cc12                %            -11
 6  COC(=O)COc1ccc(C2NC(=O)NC(C)=C2C(=O)NCc2ccccc2)cc1OC (configuration not stated)                %          -4.82
 7  CN(c1ccccc1)S(=O)(=O)c1cc(C(=O)Nc2nc3ccccc3[nH]2)ccc1Cl                %            1.7
 8  CN(CC(=O)N1CCN(c2ccccc2)CC1)S(=O)(=O)c1cccs1                %          -17.7
 9  Cc1ccc(OCC(=O)Nc2ccc(S(=O)(=O)Nc3ccccn3)cc2)cc1                %           -3.5
10  COc1ccc(Br)cc1CN1CCN(C(=O)c2cccc(OC)c2OC)CC1                %           81.3
11  CCN(c1ccccc1)S(=O)(=O)c1ccc2[nH]c(=O)[nH]c2c1                %           -1.8
12  CCOc1ccc(N=C2SC(C(=O)O)CC(=O)N2C)cc1 (configuration not stated)                %           13.2
13  Cc1ccc(C(=O)/C=C/Nc2ccc(S(=O)(=O)Nc3onc(C)c3C)cc2)cc1                %          -24.4
14  CCOc1ccc(C(=O)N(Cc2ccc(N(C)C)cc2)C2CCS(=O)(=O)C2)cc1 (configuration not stated)                %          -6.02
15              NC1=NC(=O)S/C1=C\c1ccc(O)cc1                %          -5.85
16  FC(F)(F)c1nc(-c2ccccc2)ncc1-c1nnnn1-c1ccccc1                %           13.7
17                  CN(C)N=Nc1ccc2nc[nH]c2c1                %          -55.4
18  CCc1ccc(S(=O)(=O)NCC(O)COc2ccc(OC)cc2)cc1 (configuration not stated)                %          -1.31
19  CN1CCN(C(CNS(=O)(=O)c2cccs2)c2cccnc2)CC1 (configuration not stated)                %          -2.11
20  COc1ccc(-n2nc(C(=O)Nc3cc(OC)c(OC)c(OC)c3)c3ccccc3c2=O)c(OC)c1                %           2.29
21  CCN(c1ccccc1)S(=O)(=O)c1ccc(NC(=O)C(C)(C)C)cc1                %           4.53

###

- test-target: 14-3-3 protein zeta/delta (Bos taurus) (UniProt P63103)
- experiment-description: disruptors of 14-3-3 zeta phospho-Bad complex – biochemical, TR-FRET, bovine 14-3-3 zeta, primary screen (AID 781);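 further: 0% = full 14-3-3 plus peptide FRET controls and 100% = background without 14-3-3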
- experimental-setup: TR-FRET 14-3-3zeta/Dy647-pBad peptide displacement, 1 h; at 21.7 µM
The campaign covered roughly 220,000 compounds. About 1,600 (0.73%) were called active.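 The calls were made as follows: active = inhibition above about 70% (limit read from the data); inactive = the rest.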 Only a selection was taken, and actives are over-represented in it overall.
Outcome codes: 1 (active), -1 (inactive)

>>> df
                                    molecule                               test_target  label_class
 0    O=C(Nc1ccccc1)N1CCN(C(=O)Nc2ccccc2)CC1  14-3-3 protein zeta/delta (Bos taurus) (UniProt P63103)           -1
 1  Cc1nnc(SCCCCSc2nnc(C)c(=O)[nH]2)[nH]c1=O  14-3-3 protein zeta/delta (Bos taurus) (UniProt P63103)           -1
 2  CC(CN1CCOCC1)c1ccccc1 (stereo unspecified)  14-3-3 protein zeta/delta (Bos taurus) (UniProt P63103)            1
 3  CCOC(=O)C1CCN(C(=O)/C=C/c2cc(OC)c(OC)c(OC)c2)CC1  14-3-3 protein zeta/delta (Bos taurus) (UniProt P63103)           -1
 4  CCOC(=O)C1CCCCN1Cc1ccc(OC)c(OC)c1OC (stereo unspecified)  14-3-3 protein zeta/delta (Bos taurus) (UniProt P63103)            1
 5                 S=C(NCCc1ccccc1)Nc1ccccc1  14-3-3 protein zeta/delta (Bos taurus) (UniProt P63103)           -1
 6    O=C(NC(=S)N1CCN(Cc2ccccc2)CC1)c1ccccc1  14-3-3 protein zeta/delta (Bos taurus) (UniProt P63103)           -1
 7  CC(=O)Nc1ccc(S(=O)(=O)Nc2nccc(/C=C/c3ccccc3F)n2)cc1  14-3-3 protein zeta/delta (Bos taurus) (UniProt P63103)           -1
 8  COc1ccc(NC(=S)N2CCc3cc(OC)c(OC)cc3C2)cc1  14-3-3 protein zeta/delta (Bos taurus) (UniProt P63103)           -1
 9  CCOC(=O)CN(C(=O)COc1nc(C)cc(C)c1C#N)c1ccc(Cl)cc1  14-3-3 protein zeta/delta (Bos taurus) (UniProt P63103)           -1
10  CCN(CC)CC(=O)Nc1sc2c(c1C(=O)c1ccccc1C)CCC2  14-3-3 protein zeta/delta (Bos taurus) (UniProt P63103)           -1

###

- test-target: 14-3-3 protein zeta/delta (Bos taurus)
- experiment-description: disruptors of 14-3-3 zeta phospho-Bad complex – biochemical, TR-FRET, bovine 14-3-3 zeta, primary screen (AID 781);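 further: 0% = full 14-3-3 plus peptide FRET controls and 100% = background without 14-3-3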
- experimental-setup: TR-FRET 14-3-3zeta/Dy647-pBad peptide displacement, 1 h; at 21.7 µM
Among all 220,000 compounds or so, about 1,600 (0.73%) were called active.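 How the source made its calls: active means inhibition above about 70% (limit read from the data); inactive means the rest.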 This excerpt belongs to a sample that is enriched for actives.
Outcome codes: active, inactive

>>> print(df.to_string())
                                    compound                             test_target  label_class
 0  Cc1nn(CC2CC2)c(=O)n1N(C)c1ncc(C(F)(F)F)cc1Cl  14-3-3 protein zeta/delta (Bos taurus)     inactive
 1  Cc1ccc(OCC(=O)Nc2ccccc2Sc2ccc(Cl)cc2)c([N+](=O)[O-])n1  14-3-3 protein zeta/delta (Bos taurus)       active
 2               O=C(N/N=C/c1ccccn1)c1cccnc1  14-3-3 protein zeta/delta (Bos taurus)     inactive
 3  COc1ccccc1NC(=O)CSc1nc2sc(C)c(C)c2c(=O)n1Cc1ccco1  14-3-3 protein zeta/delta (Bos taurus)     inactive
 4          O=S1(=O)C=C(SCCN2CCCC2)c2ccccc21  14-3-3 protein zeta/delta (Bos taurus)       active
 5  Cc1cc2nc3c(=O)n(Cc4ccccc4)c(=O)[nH]c3nc2cc1N  14-3-3 protein zeta/delta (Bos taurus)     inactive
 6  O=C(COc1ccc(/C=N/NC(=O)c2ccc(O)cc2)cc1)Nc1ccc([N+](=O)[O-])cc1  14-3-3 protein zeta/delta (Bos taurus)       active
 7       Nc1ccc2nc3c(=O)[nH]c(=S)[nH]c3nc2c1  14-3-3 protein zeta/delta (Bos taurus)       active
 8      Nc1nnc(SCCN2C(=O)c3ccccc3S2(=O)=O)s1  14-3-3 protein zeta/delta (Bos taurus)     inactive
 9  CC1(C)OC(=O)C(=CNC(CO)C(=O)O)C(=O)O1 (stereo unspecified)  14-3-3 protein zeta/delta (Bos taurus)     inactive
10  O=C(N/N=C/c1ccc(OCc2ccccc2)cc1)c1ccc(O)cc1  14-3-3 protein zeta/delta (Bos taurus)     inactive
11    NC(N)=N/N=C/c1ccc(OCc2ccc(Cl)cc2Cl)cc1  14-3-3 protein zeta/delta (Bos taurus)       active
12  COc1ccc(C(=O)O/N=C(\N)Cc2ccc(Cl)cc2Cl)cc1OC  14-3-3 protein zeta/delta (Bos taurus)     inactive
13  COc1ccc(/C=C(\NC(=O)c2ccc(OCC(C)C)cc2)C(=O)OCc2ccco2)cc1  14-3-3 protein zeta/delta (Bos taurus)     inactive
14                  COCc1c(N)c(C)nc(Cl)c1C#N  14-3-3 protein zeta/delta (Bos taurus)     inactive
15    NC(N)=N/N=C/c1ccc(Cl)c([N+](=O)[O-])c1  14-3-3 protein zeta/delta (Bos taurus)     inactive
16  Cc1nn(C)cc1N1C(=O)c2cccc3c(N)ccc(c23)C1=O  14-3-3 protein zeta/delta (Bos taurus)     inactive
17  Cc1nn(CC#N)c(=O)n1N(C)c1ncc(C(F)(F)F)cc1Cl  14-3-3 protein zeta/delta (Bos taurus)     inactive
18  Cc1ccc(OCC(=O)NC(C)c2ccccc2)c([N+](=O)[O-])n1 (stereo unspecified)  14-3-3 protein zeta/delta (Bos taurus)     inactive
19        O=C(Nc1ccc(Cl)cn1)c1ccc2c(c1)OCCO2  14-3-3 protein zeta/delta (Bos taurus)     inactive
20  Cc1nc(SCC(=O)Nc2cc(C)on2)c2c(C)c(C)sc2n1  14-3-3 protein zeta/delta (Bos taurus)       active
21  O=C(COC(=O)Cn1cnc2ccccc2c1=O)NCC12CC3CC(CC(C3)C1)C2  14-3-3 protein zeta/delta (Bos taurus)     inactive
22            c1ccc(-c2ccccc2OCCN2CCCCC2)cc1  14-3-3 protein zeta/delta (Bos taurus)     inactive
23  COc1cc(OC)c(/C=N/NC(=O)c2ccc([N+](=O)[O-])cc2)cc1Br  14-3-3 protein zeta/delta (Bos taurus)     inactive
24  CCC(=O)c1ccc(OCC(=O)Nc2ccc3nc(C)sc3c2)cc1  14-3-3 protein zeta/delta (Bos taurus)     inactive
25  COc1cccc(NC(=O)c2ccc3c(SCC(=O)O)c4c(nc3c2)CCCC4)c1  14-3-3 protein zeta/delta (Bos taurus)     inactive
26  Nc1nc(-c2sc3nc4c(cc3c2N)CCCC4)nc(N2CCOCC2)n1  14-3-3 protein zeta/delta (Bos taurus)     inactive
27             CN(C)C(=O)c1coc2nc3ccccc3nc12  14-3-3 protein zeta/delta (Bos taurus)     inactive
28   COc1ccc(CNC(=O)C2CCN(S(C)(=O)=O)CC2)cc1  14-3-3 protein zeta/delta (Bos taurus)     inactive
29               CCCCn1c(=S)[nH]c2ccccc2c1=O  14-3-3 protein zeta/delta (Bos taurus)     inactive
30      CCN(CC)CCNCC(=O)Nc1ccc(Oc2ccccc2)cc1  14-3-3 protein zeta/delta (Bos taurus)     inactive
31              CN(C)CCCNC(=S)NCc1ccc(Cl)cc1  14-3-3 protein zeta/delta (Bos taurus)     inactive
32       COCCCNC(=S)N(Cc1ccccc1)Cc1ccc(F)cc1  14-3-3 protein zeta/delta (Bos taurus)     inactive
33  Cc1ccc2nc(NCCCNC(=O)c3cnccn3)c(C#N)cc2c1  14-3-3 protein zeta/delta (Bos taurus)       active
34              OCCN(Cc1ccccc1)Cc1ccc(Cl)cc1  14-3-3 protein zeta/delta (Bos taurus)     inactive
35  CCCCCC(=O)Nc1ccc(C(=O)N/N=C/c2ccc([N+](=O)[O-])cc2)cc1  14-3-3 protein zeta/delta (Bos taurus)     inactive
36          Cc1cccc(NC(=S)NCCc2ccc(F)cc2)c1C  14-3-3 protein zeta/delta (Bos taurus)     inactive
37  Cc1oc2nc(SCC(=O)Nc3ccc(S(N)(=O)=O)cc3)nc(NC(=O)c3ccccc3)c2c1C  14-3-3 protein zeta/delta (Bos taurus)     inactive
38  Oc1c(Cl)cc(Cl)c(Cl)c1Cc1c(O)c(Cl)cc(Cl)c1Cl  14-3-3 protein zeta/delta (Bos taurus)       active
39  COc1ccc(N2CCN(C(=O)c3ccc4c(Cl)c5c(nc4c3)CCCC5)CC2)cc1  14-3-3 protein zeta/delta (Bos taurus)     inactive
40  CC(Sc1nc2c([nH]c3ccccc32)c(=O)n1C)c1ccccc1 (stereo unspecified)  14-3-3 protein zeta/delta (Bos taurus)       active
41         COc1ccc(-c2csc(Cc3nc(O)cs3)n2)cc1  14-3-3 protein zeta/delta (Bos taurus)     inactive
42  Cc1ccc(C)c(SCc2nc3sc(C(=O)O)c(C)c3c(=O)[nH]2)c1  14-3-3 protein zeta/delta (Bos taurus)     inactive
43        O=C(COc1ccccc1)NCCc1nc2ccccc2[nH]1  14-3-3 protein zeta/delta (Bos taurus)     inactive
44  Cn1c(N)c(C(=O)COC(=O)c2ccccc2NCc2ccco2)c(=O)n(C)c1=O  14-3-3 protein zeta/delta (Bos taurus)     inactive
45    COCCCNC(=S)NCCNc1nc2cc(C)c(C)cc2cc1C#N  14-3-3 protein zeta/delta (Bos taurus)     inactive
